- Organism: Rattus norvegicus
- Test Method Notes: DrugMatrix - Regimen: Daily Repeat
- Type: toxicity, organism-based, Sprague-Dawley
- Design: regimen Daily Repeat, gender Male, age 6-8 weeks
- Condition Summary: in vivo, po, 0 mg/kg, 120 h, tissue Plasma, route oral GAVAGE, dose level Control, time 5 day, […]

{"Compound": "CCOC(=O)C1=C(COCCN)NC(C)=C(C(=O)OC)C1c1ccccc1Cl (stereo not given) [AMLODIPINE]", "ASPARTATE AMINOTRANSFERASE": "142.33 u/L"}
{"Compound": "O=NN(CCCl)C(=O)NC1CCCCC1 [LOMUSTINE]", "ASPARTATE AMINOTRANSFERASE": "142.33 u/L"}
{"Compound": "Cc1oncc1C(=O)Nc1ccc(C(F)(F)F)cc1 [LEFLUNOMIDE]", "ASPARTATE AMINOTRANSFERASE": "89.67 u/L"}
{"Compound": "CC(C)C(=O)Nc1ccc([N+](=O)[O-])c(C(F)(F)F)c1 [FLUTAMIDE]", "ASPARTATE AMINOTRANSFERASE": "83.33 u/L"}
{"Compound": "O=C(O)CCCc1ccc(N(CCCl)CCCl)cc1 [CHLORAMBUCIL]", "ASPARTATE AMINOTRANSFERASE": "81.33 u/L"}

---

- Species: Rattus norvegicus
- Test Method Notes: DrugMatrix - Regimen: Daily Repeat
- Assay type: toxicity, organism-based, Sprague-Dawley
- Set-up: regimen Daily Repeat, gender Male, age 6-8 weeks
- Condition Summary: in vivo, po, 0 mg/kg, 120 h, tissue Plasma, route oral GAVAGE, dose level Control, time 5 day, vehicle 100 % WATER
# maps each entry to its ALKALINE PHOSPHATASE
Reported Endpoint: ALKALINE PHOSPHATASE (u/L)

{"Molecule": "c1ccc([C@H]2CN3CCSC3=N2)cc1", "Reported Endpoint": "ALKALINE PHOSPHATASE", "Value": 343}
{"Molecule": "NCCCCCC(=O)O", "Reported Endpoint": "ALKALINE PHOSPHATASE", "Value": 380.17}
{"Molecule": "Clc1cccc(Cl)c1N=C1NCCN1", "Reported Endpoint": "ALKALINE PHOSPHATASE", "Value": 371.5}
{"Molecule": "N[C@@H](Cc1ccc(O)c(O)c1)C(=O)O", "Reported Endpoint": "ALKALINE PHOSPHATASE", "Value": 367.5}
{"Molecule": "CC(O)CO (stereo unspecified)", "Reported Endpoint": "ALKALINE PHOSPHATASE", "Value": 380.17}
{"Molecule": "Cn1cc[nH]c1=S", "Reported Endpoint": "ALKALINE PHOSPHATASE", "Value": 395.67}

---

- Species: Rattus norvegicus
- Test Method Notes: DrugMatrix - Regimen: Daily Repeat
- Assay type: toxicity, organism-based, Sprague-Dawley
- Design: regimen Daily Repeat, gender Male, age 6-8 weeks
- Condition Summary: in vivo, po, 0 mg/kg, 72 h, tissue Blood, route oral GAVAGE, dose level Control, time 3 day, […]
Recorded LEUKOCYTE COUNT by entry

{"Compound": "O=c1oc2ccccc2c(O)c1Cc1c(O)c2ccccc2oc1=O [DICUMAROL]", "LEUKOCYTE COUNT (x10E3/uL)": 10.22}
{"Compound": "OC(Cn1cncn1)(Cn1cncn1)c1ccc(F)cc1F [FLUCONAZOLE]", "LEUKOCYTE COUNT (x10E3/uL)": 16.58}
{"Compound": "CN(C)c1nc(N(C)C)nc(N(C)C)n1 [ALTRETAMINE]", "LEUKOCYTE COUNT (x10E3/uL)": 14.03}
{"Compound": "Cc1ccc(-c2cc(C(F)(F)F)nn2-c2ccc(S(N)(=O)=O)cc2)cc1 [CELECOXIB]", "LEUKOCYTE COUNT (x10E3/uL)": 16.58}
{"Compound": "O=NN(CCCl)C(=O)NC1CCCCC1 [LOMUSTINE]", "LEUKOCYTE COUNT (x10E3/uL)": 14.03}
{"Compound": "CCC(C)n1ncn(-c2ccc(N3CCN(c4ccc(OCC5COC(Cn6cncn6)(c6ccc(Cl)cc6Cl)O5)cc4)CC3)cc2)c1=O (centres undefined) [ITRACONAZOLE]", "LEUKOCYTE COUNT (x10E3/uL)": 16.58}
{"Compound": "Cc1oncc1C(=O)Nc1ccc(C(F)(F)F)cc1 [LEFLUNOMIDE]", "LEUKOCYTE COUNT (x10E3/uL)": 10.33}
{"Compound": "C[C@@H]1CN(c2c(F)c(N)c3c(=O)c(C(=O)O)cn(C4CC4)c3c2F)C[C@H](C)N1 [SPARFLOXACIN]", "LEUKOCYTE COUNT (x10E3/uL)": 14.03}
{"Compound": "Cc1noc(NS(=O)(=O)c2ccc(N)cc2)c1C [SULFISOXAZOLE]", "LEUKOCYTE COUNT (x10E3/uL)": 12.45}
